Cited source for all entries: patent US10894787B2

tgt: GPR119 receptor (Homo sapiens, UniProt Q8TDV5)
Construct: expressed in transfected cells
Sequence (Q8TDV5 2-335 limits assumed): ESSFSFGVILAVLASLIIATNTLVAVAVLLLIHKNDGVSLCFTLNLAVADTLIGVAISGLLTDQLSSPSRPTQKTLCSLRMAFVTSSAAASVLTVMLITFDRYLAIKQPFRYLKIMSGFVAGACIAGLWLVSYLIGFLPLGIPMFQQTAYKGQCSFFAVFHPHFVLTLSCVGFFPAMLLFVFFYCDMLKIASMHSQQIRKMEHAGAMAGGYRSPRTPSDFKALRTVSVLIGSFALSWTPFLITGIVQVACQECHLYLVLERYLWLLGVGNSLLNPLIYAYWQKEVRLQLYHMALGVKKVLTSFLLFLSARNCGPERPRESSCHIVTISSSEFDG
experiment_description: HTRF assay for direct cAMP measurement in CHO-K1 cells stably expressing the GPR119 receptor
Assay type: cell-based
measurement_parameters: CHO-K1 cells stably expressing GPR119; 1 h incubation at room temperature; read-out: EC50, HTRF cAMP assay
# pEC50 listing for each entry below
Notebook: values listed as pEC50 are -log10 of the concentration (mol/L).

Please review the entries below; each comes with its answer.
[[record]]
smiles_code = "CC(C)(F)c1noc(C2CCN(c3ncnc(Nc4ccc(C(N)=O)cc4F)c3F)CC2)n1"
reported_endpoint = "pEC50"
measured = 7.55

[[record]]
smiles_code = "CNC(=O)c1ccc(Nc2ncnc(N3CCC(c4nc(C(C)(C)F)no4)CC3)c2F)c(F)c1"
reported_endpoint = "pEC50"
measured = 7.57


Now turn to the next compound.
State the recorded pEC50 for this entry: CN(C)C(=O)c1ccc(Nc2ncnc(N3CCC(c4nc(C(C)(C)F)no4)CC3)c2F)c(F)c1
7.63
